# SYSTEM: T1, human TIGIT expressed on cells (human, UniProt Q495A1 22-244)
# T1 construct: whole, on cells; on Jurkat E6.1 cells transduced with human TIGIT, on Promega TIGIT Effector cells or on human primary T cells; the assay field says which; also called hTIGIT; Jurkat-hTIGIT
# T1 sequence (looked up): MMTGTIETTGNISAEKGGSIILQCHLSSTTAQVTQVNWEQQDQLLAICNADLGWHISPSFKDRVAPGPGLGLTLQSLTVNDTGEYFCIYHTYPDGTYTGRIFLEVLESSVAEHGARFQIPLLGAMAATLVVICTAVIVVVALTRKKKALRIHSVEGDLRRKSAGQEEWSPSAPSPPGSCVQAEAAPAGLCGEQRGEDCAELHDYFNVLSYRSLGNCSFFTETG
# PROTOCOL NOTES: flow cytometry on Jurkat-hTIGIT
VALUE TYPE: Fold change of EC50 over EC50 of best clone (31282_wu) (fold)
Your answer is read as fold, so omit the unit and give the number.

BINDER | RECORDED VALUE
313M32 (comparative anti-TIGIT antibody, human IgG1) (antibody, V domains shown, from WO2016/191643; made in HEK cells as human IgG1; the VL as printed ends at ...TFG (FR4 not complete); also called 313M2) VH: QVQLQESGPGLVKPSETLSLTCAVSGYSITSDYAWNWIRQPPGKGLEWIGYISYSGSTSYNPSLRSRVTISRDTSKNQFFLKLSSVTAADTAVYYCARRQVGLGFAYWGQGTLVTVSS VL: DIQMTQSPSSLSASVGDRVTITCKASQDVSTAVAWYQQKPGKAPKLLIYSASYRYTGVPSRFSGSGSGTDFTFTISSLQPEDIATYYCQQHYSTPWTFG | 4.2

Short answer for 22G2 (comparative anti-TIGIT antibody, human IgG1) (antibody, V domains shown, from WO2016/106302; made in HEK cells as human IgG1) VH: QVHLQESGPGLVKPSETLSLTCTVSGGSVSSGIYYWSWIRQPPGKGLEWIGYIYYSGSTNYNPSLKSRVTISVDTSKNQFSLKLSSVTAADTAVYYCARDYYVSGNYYNVDYYFFGVDVWGQGTTVTVSS VL: EIVLTQSPATLSLSPGERATLSCRASQSVSSYLAWYQQKPGQAPRLLIYDASNRATGIPARFSGSGSGTDFTLTISSLEPEDFAVYYCQQRSNWPPLFTFGPGTKVDIK : Fold change of EC50 over EC50 of best clone (31282_wu) was 3

Short answer for 31C6 (MEB125.31C6.A1.205 VH4/VL1; comparative anti-TIGIT antibody, human IgG1) (antibody, V domains shown, from WO2016/028656; made in HEK cells as human IgG1; also called 3106 (as the text prints it)) VH: EVQLVQSGAEVKKPGASVKVSCKASGYTFSSYVMHWVRQAPGQGLEWIGYIDPYNDGAKYAQKFQGRVTLTSDKSTSTVYMELSSLRSEDTAVYYCARGGPYGWYFDVWGQGTTVTVSS VL: DIQMTQSPSSLSASVGDRVTITCRASEHIYSYLSWYQQKPGKAPKLLIYNAKTLAEGVPSRFSGSGSGTDFTLTISSLQPEDFATYYCQHHFGSPLTFGQGTRLEIK : Fold change of EC50 over EC50 of best clone (31282_wu) was 1.2

Short answer for TIG1 (comparative anti-TIGIT antibody, human IgG1) (antibody, V domains shown, from WO2017/152088; made in HEK cells as human IgG1) VH: DVQLVESGGGLVQPGGSRKLSCAASGFTFSNFGMHWVRQAPEKGLEWVAFISSGSSSIYYADTVKGRFTISRDNPKNTLFLQMTSLRSEDTAMYYCARMRLDYYAMDYWGQGTSVTVSS VL: DVQITQSPSYLAASPGETITINCRASKSISKYLAWYQEKPGKTNKLLIYSGSTLQSGIPSRFSGSGSGTDFTLTISSLEPEDFAMYYCQQHNEYPWTFGGGTKLEIK : Fold change of EC50 over EC50 of best clone (31282_wu) was 1.6
